This collection of values is drawn from the Immune Epitope Database (IEDB).

molecular target: HLA-A*68:01; test: IEDB peptide-MHC binding, purified MHC/competitive/radioactivity; filed as Kd, often an IC50 or EC50 that approximates it; bounds were set here for any values at or beyond the usual limits of such assays; details: source organism: Dengue virus 2 Jamaica/1409/1983
recorded_endpoint: Kd (nM)
Write the number in nM without appending the unit.

GET /values?item= STYGWNLVR &system= HLA-A*68:01 returns Kd: 8.81

GET /values?item= YVSAIAQTEK &system= HLA-A*68:01 returns Kd: 24

GET /values?item= FMALVAFLR &system= HLA-A*68:01 returns Kd: 50.6

GET /values?item= EAKQPATLR &system= HLA-A*68:01 returns Kd: 74.8

====

target: HLA-B*48:01; assay: IEDB peptide-MHC binding, purified MHC/direct/fluorescence; filed as Kd, often an IC50 or EC50 that approximates it; bounds were set here for any values at or beyond the usual limits of such assays; details: source organism: Camelpox virus M-96
recorded_endpoint: Kd

Please fill in: Kd reported for MTRVTNNVY = ≥ 20 µM

====

Each entry below carries its reported Kd.
biological target: HLA-B*53:01; assay: IEDB peptide-MHC binding, purified MHC/competitive/radioactivity; filed as Kd, often an IC50 or EC50 that approximates it; bounds were set here for any values at or beyond the usual limits of such assays; conditions: source organism: SARS coronavirus Tor2
Write the number in µM without appending the unit.

Please fill in: Kd reported for KPVDTSNSF = 0.151

Please fill in: Kd reported for WPVTLACFVL = 0.0738

Please fill in: Kd reported for MPICMDVRAI = 0.00598

Field: next sequence
Please fill in: Kd reported for FPQAAPHGVV = 4.14

====

target: HLA-B*15:01; experiment: IEDB peptide-MHC binding, purified MHC/competitive/fluorescence; filed as Kd, often an IC50 or EC50 that approximates it; bounds were set here for any values at or beyond the usual limits of such assays; settings: source organism: Cryptococcus neoformans var. neoformans B-3501A
pKd: −log10 of the molar value.
recorded_endpoint: pKd

Please fill in: pKd reported for AIDDFCLFA = ≤ 4.70

====

target: HLA-A*69:01; test: IEDB peptide-MHC binding, purified MHC/direct/fluorescence; filed as Kd, often an IC50 or EC50 that approximates it; bounds were set here for any values at or beyond the usual limits of such assays; settings: source organism: Brucella suis 1330
pKd: −log10 of the molar value.
recorded_endpoint: pKd

Please fill in: pKd reported for MHCDFAFWV = ≤ 4.70

====

biological target: HLA-A*02:17; assay: IEDB peptide-MHC binding, purified MHC/competitive/radioactivity; filed as Kd, often an IC50 or EC50 that approximates it; bounds were set here for any values at or beyond the usual limits of such assays; conditions: source organism: Dengue virus 1 Singapore/S275/1990
recorded_endpoint: pKd
// scale note: pKd = -log10(conc_M); give the bare number

# annotated cases, reported pKd shown
Please fill in: pKd reported for LMLVAHYAI = 7.80

Please fill in: pKd reported for LLATSIFKL = 7.64

Please fill in: pKd reported for YLALMATFKM = 6.74

Field: next sequence
Please fill in: pKd reported for LLMLLPTALA = 5.28

====

target: HLA-C*08:02; assay: IEDB peptide-MHC binding, purified MHC/direct/fluorescence; filed as Kd, often an IC50 or EC50 that approximates it; bounds were set here for any values at or beyond the usual limits of such assays; conditions: source organism: Yersinia pestis Nepal516
recorded_endpoint: Kd

Please fill in: Kd reported for TVYPKTHYV = ≥ 20 µM
